Hey, just so you know, these numbers are from PubChem BioAssay AID1076.

assay: LNCaP cell loss by flow event count, confirmation, cytotoxicity control for prostate differentiation activator project, single point (AID 1076); settings: flow cytometry event count, 4 d, at 100 µM;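 also: counts scatter-gated live cells after medium removal discards detached dead cells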
Calls of active or inactive are those of the source.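 The calls were made as follows: active = cell event count below 40, meaning activity score above 60 where score is 100 minus count; inactive = the rest.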
Choose one outcome from this list and give only that: active, inactive

In this assay, the call recorded for CCN1CCN(c2ncc(C(=O)Nc3cc(Cl)c(OC)cc3OC)c3ccccc23)CC1 was what?
inactive

Query: recorded result category for CCOc1ccccc1NC(=O)c1nc[nH]c1C(=O)Nc1ccccc1OCC in this test
inactive

GET /call?item= Cc1ccccc1-c1nc(CN2CCC(C(=O)NCCCN3CC(C)CC(C)C3)CC2)c(C)o1 (stereo not given) returns the recorded outcome of this test.
inactive

Kindly provide the recorded test outcome for the following compound: Cc1oc(-c2ccc(Cl)cc2)nc1CN1CCC(C(=O)N2CCc3ccccc3C2)CC1
inactive

Which result was noted for this compound in the test: Cc1nnc(NCc2n[nH]c(=O)c3ccccc23)c2ccccc12
inactive

Can you look up the reported call for Cc1ccc2c(c1)NC(=O)C(CC(=O)NCCCN1CCN(c3cc(Cl)ccc3C)CC1)O2 (stereo not given) for me?
active

// outcome(item) with item = Cn1c(C(=O)NCCN2CCN(c3ccccc3F)CC2)cc2c(=O)n(C)c3ccccc3c21
inactive

Query: recorded result category for CCc1ccc(-c2nc(CN3CCC(C(=O)NCc4ccccc4OC)CC3)c(C)o2)cc1 in this test
inactive

What is the recorded call for this compound in the test? c1cncc(-c2nc3ccccc3o2)c1
inactive

# outcome recorded in this test, key = CC1(C)CC(=O)c2cc(OCC(=O)NCCCN3CCN(c4ccc(F)cc4)CC3)ccc2O1
inactive

----------
For each entry below, report its cell event count value.
assay: LNCaP cell loss by flow event count, confirmation, cytotoxicity control for prostate differentiation activator project, single point (AID 1076); conditions: flow cytometry event count, 4 d, at 100 µM, stronger effect = lower value;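 also: counts scatter-gated live cells after medium removal discards detached dead cells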
Lab note: jot down the number only; don't add units.

Given CCOc1cccc(-c2nnc3n2N=C(c2cc(OC)ccc2OC)CS3)c1 , state its recorded cell event count.
3

GET /values?readout=cell event count&item= CCCS(=O)(=O)N1CCCC(C(=O)NCCCN2CCN(c3ccc(F)cc3)CC2)C1 (stereo not given)
49

Entry O=C(NCCCN1CCN(c2cccc(Cl)c2)CC1)C1CCC(=O)N1Cc1ccccc1Cl (stereo not given) : reported cell event count = ?
12

GET /values?readout=cell event count&item= O=C(CSc1c[nH]c2ccccc12)N1CCOCC1
297

What does the data say about its cell event count? Entry: CCOc1ccc(-c2cc(C(=O)NCCCN3CCN(CC)CC3)c3ccccc3n2)cc1
39

Could you share which cell event count value was measured for Cn1c(C(=O)NCCCN2CCN(c3cccc(Cl)c3)CC2)cc2c(=O)n(C)c3ccccc3c21 ?
46

Recorded cell event count of COc1ccc(N2CCN(c3oc(COc4ccccc4Cl)nc3C#N)CC2)cc1 , please.
214

# input compound: CCOc1nc(-c2ccccc2O)nc2ccccc12 ; wanted: its cell event count
252

Please give the measured cell event count for this compound: Cc1cc(=O)n2nc(N3CCCC(C(=O)NCc4ccco4)C3)sc2n1 (stereo not given)
325

I have this compound here, CCCCCn1c(=N)n(CC(O)COc2ccccc2OC)c2ccccc21 (stereo not given) , and I need its recorded cell event count.
20

----------
experiment: LNCaP cell loss by flow event count, confirmation, cytotoxicity control for prostate differentiation activator project, single point (AID 1076); settings: flow cytometry event count, 4 d, at 100 µM, stronger effect = lower value;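 also: counts scatter-gated live cells after medium removal discards detached dead cells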
Activity calls are given as the source filed them.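 How the source made its calls: active means cell event count below 40, meaning activity score above 60 where score is 100 minus count; inactive means the rest.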
For each of the molecules below, state its cell event count.

So what does the record say about cell event count for CCc1ncc(C(O)c2cccc(OC)c2OC)n1C (stereo unspecified) ?
285 (inactive)

Which cell event count is listed for COc1ccc2nc(NC(=O)C(NS(=O)(=O)c3cccs3)C(C)C)sc2c1 (stereo unspecified) ?
67 (inactive)

Look up cell event count for this molecule: COc1ccc(CCNC(=O)C2CCN(Cc3nc(-c4ccccc4F)oc3C)CC2)cc1OC
524 (inactive)

Which cell event count value is on record for CCOc1ccc2ccccc2c1C(=O)N1CCN(c2ccccc2)CC1 ?
19 (inactive)

Which cell event count is reported for this molecule? Cc1ccc(C)c(N2CCN(CCCNC(=O)Cn3cc4c(n3)CCC(C)C4)CC2)c1 (stereo unspecified)
5 (inactive)

Returns the measured cell event count for the input molecule. Input: COc1ccc(N2CCN(CCCNC(=O)CCCn3c(=O)[nH]c4ccsc4c3=O)CC2)cc1
13 (active)

# query: cell event count of entry Cc1nc(NCCNC(=O)c2ccco2)c2c(C)c(C)sc2n1
83 (inactive)

Can you share its cell event count? I mean this molecule: CC(C)CCNC(=O)C1CCN(c2nc3ccccc3o2)CC1
73 (inactive)

Report cell event count for COc1ccc(S(=O)(=O)CCC(=O)O)cc1 please.
153 (inactive)

Query (molecule): CCCc1cc(-c2n[nH]c(C)c2-c2ccc(C(=O)OCC)o2)c(O)cc1O ; field requested: cell event count
7 (active)

// query cell event count value for entry COc1ccc(OC)c(CNC(=O)CCNC(=O)Cn2ccc3ccccc3c2=O)c1
63 (inactive)

----------
Please go through the items and note down their cell event count.
assay: LNCaP cell loss by flow event count, confirmation, cytotoxicity control for prostate differentiation activator project, single point (AID 1076); conditions: flow cytometry event count, 4 d, at 100 µM, stronger effect = lower value;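 also: counts scatter-gated live cells after medium removal discards detached dead cells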
The source made the active and inactive calls.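 Rule for the calls: active = cell event count below 40, meaning activity score above 60 where score is 100 minus count; inactive = the rest.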

Looking for the measured cell event count of CCOC(=O)c1c(-c2ccc(C)o2)csc1NC(=O)CN1CCN(CC)CC1 , can you help?
27 (inactive)

What value of cell event count has been recorded for this entry: CCN(CCNC(=O)C1CCN(Cc2nc(-c3cccc(Cl)c3)oc2C)CC1)c1ccccc1
3 (active)

Please report the recorded cell event count for CCCCOc1ccccc1NC(=O)Cn1c(-c2nonc2N)nc2ccccc21 .
99 (inactive)

Look up cell event count: O=C(Cn1c(=O)[nH]c2ccsc2c1=O)NC1CCCCCC1
120 (inactive)

Need cell event count, item O=C(COc1ccc(S(=O)(=O)N2CCCC2)cc1Cl)NC1CC1
355 (inactive)

Item COCCn1c(=O)[nH]c2cc(C(=O)NCCCN3CCN(c4ccc(F)cc4)CC3)ccc2c1=O has what recorded cell event count?
140 (inactive)

Consider the compound shown here: N#C/C(=C\c1ccc(O)c(O)c1)C(=O)NCCCc1ccccc1 What is its recorded cell event count?
38 (inactive)

Which cell event count is listed for O=c1c2ccccc2nnn1CSc1nnc2sc3ccccc3n12 ?
141 (inactive)

cell event count for CCc1ccc(-c2nc(CN3CCC(C(=O)NCc4ccc(F)cc4)CC3)c(C)o2)cc1 ?
1 (active)

Returns the measured cell event count for the input compound. Input: CCN1C(=O)OC2(CCCCC2)C1(C)O (stereo unspecified)
230 (inactive)

Tell me the measured cell event count of COc1ccc(CCNC(=O)C2CCN(Cc3nc(-c4ccccc4C)oc3C)CC2)cc1OC , please.
1 (inactive)

----------
For each record, write down the corresponding cell event count.
assay: LNCaP cell loss by flow event count, confirmation, cytotoxicity control for prostate differentiation activator project, single point (AID 1076); details: flow cytometry event count, 4 d, event count, at 10 µM, stronger effect = lower value;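 also: counts scatter-gated live cells after medium removal discards detached dead cells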
Hey, just send me the number, nothing else.

// cell event count lookup, key: CCCOc1ccc2nc(NC(=O)OC)[nH]c2c1
102

Look at this compound and give its reported cell event count. Cc1cccc(-c2nc(CN3CCCC(C(=O)NC4CCCC4)C3)c(C)o2)c1 (stereo not given)
328

What measured cell event count goes with CC1(C)CC(=O)c2cc(OCC(=O)NCCCN3CCN(c4ccccc4F)CC3)ccc2O1 ?
141

Give the measured cell event count of COc1ccc(Cl)c(N2CCN(CCCNC(=O)Nc3ccc(C)cc3)CC2)c1 .
128

Which cell event count is listed for O=C(NCCCN1CCN(c2cccc(Cl)c2)CC1)C1CCC(=O)N1Cc1ccccc1Cl (stereo not given) ?
239

----------
assay: LNCaP cell loss by flow event count, confirmation, cytotoxicity control for prostate differentiation activator project, single point (AID 1076); settings: flow cytometry event count, 4 d, event count, at 10 µM, stronger effect = lower value;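 also: counts scatter-gated live cells after medium removal discards detached dead cells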
Criterion: cell event count strictly under 200. Met: label 1. Not met: label 0.

is_below(cell event count, 200) for Cc1nc(NCCNC(=O)c2ccco2)c2c(C)c(C)sc2n1 ?
label 1

Strictly below 200 in cell event count? COc1ccc(-c2nc(CN3CCC(C(=O)N4CCc5ccccc54)CC3)c(C)o2)cc1OC
label 0

Is cell event count strictly under 200 for the entry CC1=C(n2nnc3ccccc32)C(c2ccccc2)C(C#N)=C(N)O1 (configuration not stated) ?
label 1

Does this compound meet the criterion cell event count < 200? O=C(NCCCN1CCN(c2ccccc2F)CC1)C1CCCN(S(=O)(=O)c2cnc[nH]2)C1 (configuration not stated)
label 1

Hello, I'm reviewing records and need to know if cell event count of C=CCn1c(=N)n(CC(O)COc2ccccc2OC)c2ccccc21 (configuration not stated) is below 200. Could you check?
label 1

Given the entry CN(C(=O)c1ccccn1)c1nnc(-c2cccnc2)s1 , would its reported cell event count be below 200?
label 0

In the record for COc1ccccc1N1CCN(c2nc3ccccc3nc2C(C#N)C(=O)OC(C)C)CC1 (configuration not stated) , is cell event count less than 200?
label 0

Identify whether the compound CCn1c(=O)cc(SCC(=O)NCCCN2CCN(c3ccc(F)cc3)CC2)c2ccccc21 records cell event count below 200.
label 0

Take the compound O=c1c2ccccc2nnn1CSc1nnc2sc3ccccc3n12 and say whether its cell event count is less than 200.
label 1

Problem: For the compound CCOC(=O)N1CCN(C(=O)CN(c2cccc(C(F)(F)F)c2)S(=O)(=O)c2ccccc2)CC1 , is cell event count under 200?
label 0

Regarding CCOC(=O)c1ccc(NC(=O)Nc2ccc3c4c(cccc24)C(=O)N3CC)cc1 , kindly confirm whether its cell event count is beneath 200.
label 0

For this compound, is cell event count lower than 200? N=c1n(CCN2CCCCC2)c2ccccc2n1CC(O)COc1ccccc1 (configuration not stated)
label 1

is_below(cell event count, 200) for COc1ccc(S(=O)(=O)CCC(=O)O)cc1 ?
label 1

Could you please tell me whether cell event count recorded for COc1ccc(-c2noc(-c3cc(Cl)ccc3Cl)n2)cc1OC is less than 200?
label 1

In the record for Cc1oc(-c2ccc(Cl)cc2)nc1CN1CCC(C(=O)NCCCN2CCOCC2)CC1 , is cell event count less than 200?
label 1

Dear colleague, could you confirm whether cell event count of CCc1ccc(-c2nc(CN3CCC(C(=O)NCc4ccc(F)cc4)CC3)c(C)o2)cc1 falls below 200? Thanks.
label 1

Record COc1ccc(-c2cc(C(F)(F)F)nc(N3CCN(C)CC3)n2)cc1 : is its cell event count strictly below 200?
label 1

Criterion: cell event count strictly below 200. Is it met by CCOC(=O)c1cc2c(=O)n3ccccc3nc2n(CCCOC)c1=NC(=O)c1cccnc1 ?
label 1

Field: below-cutoff. Rule: recorded cell event count strictly less than 200. Subject: O=C(NC1CCCC1)C1CCN(S(=O)(=O)c2cccc3cccnc23)CC1
label 1

Input Cc1oc(-c2ccccc2F)nc1CN1CCC(C(=O)NCc2cccnc2)CC1 ; condition: cell event count strictly below 200. Does it hold?
label 0

Check if cell event count falls below 200 for CN(C)CCCN1c2ccccc2CCc2ccc(Cl)cc21 .
label 1

API: query returns whether the compound falls strictly under 200 in cell event count. Query: O=c1cc(N2CCc3ccccc3C2)[nH]c(=O)n1C1CCCCC1
label 1

hey, is cell event count for CCN1CCN(CCNC(=O)C2CCN(Cc3nc(-c4ccc(Cl)cc4)oc3C)CC2)CC1 lower than 200 or not?
label 0

Is it true that cell event count reported for Cc1ccc(NC(=O)CCNS(=O)(=O)c2ccc3c(c2)oc(=O)n3C)c(C)c1 is less than 200?
label 1

Please state whether cell event count is below 200 for COCCn1cc(C(=O)N2CCCC(C)C2)c2c3ccccc3n(C)c2c1=O (configuration not stated)
label 1

# TODO verify cell event count < 200 strictly for this compound: O=C(CCNC(=O)Cn1ccc2ccccc2c1=O)NCCCN1CCN(c2ccccc2F)CC1
label 1

Item CCN1CCCC1CNC(=O)C1CCN(Cc2nc(-c3cccc(Br)c3)oc2C)CC1 (configuration not stated) : cell event count beneath 200, strictly?
label 1

Record CC1CCCCN1CCNC(=O)c1ccc2c(=O)n(CCc3ccccc3)c(=O)[nH]c2c1 (configuration not stated) : is its cell event count strictly below 200?
label 1

Is it true that cell event count reported for COC(=O)Nc1sccc1C(=O)Nc1sccc1C(=O)OC is less than 200?
label 1

Lab log: compare recorded cell event count with 200; is it strictly lower for CCOC(=O)c1[nH]c(C)c(C(=O)NC2CCCCCC2)c1C ?
label 1

Confirm or reject: cell event count of CCOC(=O)N1CCC(NC(=O)c2cc3c(-c4cccc(OC)c4)nn(C)c3s2)CC1 lies strictly below 200
label 0

Below 200 on cell event count? Entry O=C(NCCCN1CCN(c2cccc(Cl)c2)CC1)c1cccc(N2CCCC2=O)c1
label 1

Does COc1ccccc1N1CCN(C(=O)CCn2c(=O)[nH]c3ccsc3c2=O)CC1 have cell event count strictly under 200?
label 0

Hello, I'm reviewing records and need to know if cell event count of COc1ccc(NC(=O)NCCCN2CCN(c3cc(C)ccc3C)CC2)cc1 is below 200. Could you check?
label 1

Take the compound COc1ccc(N2CCN(CCCNC(=O)C3(S(=O)(=O)c4ccc(Cl)cc4)CC3)CC2)cc1 and say whether its cell event count is less than 200.
label 1

cell event count under 200? Item: COc1ccc2nc(NC(=O)C(NS(=O)(=O)c3cccs3)C(C)C)sc2c1 (configuration not stated)
label 0

I'd appreciate it if you could check whether CCOC(=O)c1c(-c2ccc(C)o2)csc1NC(=O)CN1CCN(CC)CC1 has cell event count smaller than 200.
label 1

I'd appreciate it if you could check whether CCOc1ccc2ccccc2c1C(=O)N1CCN(c2ccccc2)CC1 has cell event count smaller than 200.
label 1

Below 200 on cell event count? Entry CCCNC(=O)C1CN(S(=O)(=O)c2ccccc2)CCN1S(=O)(=O)c1ccccc1 (configuration not stated)
label 1

Dear colleague, could you confirm whether cell event count of COc1ccc(-c2cc(C(F)(F)F)nc(N3CCN(c4ccc(F)cc4)CC3)n2)cc1OC falls below 200? Thanks.
label 1

Quick check: does COc1ccc(/C=N/c2nc3ccccc3n2C)cc1OC have cell event count under 200?
label 1
